Known IC50 of a selection of compounds
# experimentalTarget: UniProtKB P42336
# Sequence (P42336 whole entry): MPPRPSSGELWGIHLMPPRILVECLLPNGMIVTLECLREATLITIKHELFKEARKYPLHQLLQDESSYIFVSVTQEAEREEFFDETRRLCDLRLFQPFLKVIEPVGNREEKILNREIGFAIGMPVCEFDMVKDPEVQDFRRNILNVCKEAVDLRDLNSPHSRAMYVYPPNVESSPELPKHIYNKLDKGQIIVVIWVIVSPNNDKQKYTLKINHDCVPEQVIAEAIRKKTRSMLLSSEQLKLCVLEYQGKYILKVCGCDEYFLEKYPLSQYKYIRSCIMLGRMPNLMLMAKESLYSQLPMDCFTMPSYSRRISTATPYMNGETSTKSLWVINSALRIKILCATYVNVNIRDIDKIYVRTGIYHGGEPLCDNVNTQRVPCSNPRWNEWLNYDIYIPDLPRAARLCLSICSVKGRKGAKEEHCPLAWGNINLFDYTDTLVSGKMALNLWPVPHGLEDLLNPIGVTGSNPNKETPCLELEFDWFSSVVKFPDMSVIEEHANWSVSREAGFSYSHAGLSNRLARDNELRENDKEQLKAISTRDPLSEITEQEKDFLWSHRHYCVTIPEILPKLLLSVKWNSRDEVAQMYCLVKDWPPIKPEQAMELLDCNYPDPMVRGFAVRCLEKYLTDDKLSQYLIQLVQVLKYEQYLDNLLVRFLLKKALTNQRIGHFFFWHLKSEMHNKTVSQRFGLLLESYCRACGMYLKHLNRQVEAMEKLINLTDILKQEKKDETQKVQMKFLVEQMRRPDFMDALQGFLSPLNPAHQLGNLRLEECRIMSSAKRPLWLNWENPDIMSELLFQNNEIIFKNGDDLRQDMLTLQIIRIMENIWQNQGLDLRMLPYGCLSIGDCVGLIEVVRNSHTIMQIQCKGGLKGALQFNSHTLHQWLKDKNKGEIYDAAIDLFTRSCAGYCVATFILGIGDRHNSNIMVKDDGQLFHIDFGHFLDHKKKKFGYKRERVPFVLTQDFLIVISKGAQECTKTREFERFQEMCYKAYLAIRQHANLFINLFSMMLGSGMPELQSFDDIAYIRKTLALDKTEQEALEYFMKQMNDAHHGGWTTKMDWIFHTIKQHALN
# Sequence (P27986 whole entry partner): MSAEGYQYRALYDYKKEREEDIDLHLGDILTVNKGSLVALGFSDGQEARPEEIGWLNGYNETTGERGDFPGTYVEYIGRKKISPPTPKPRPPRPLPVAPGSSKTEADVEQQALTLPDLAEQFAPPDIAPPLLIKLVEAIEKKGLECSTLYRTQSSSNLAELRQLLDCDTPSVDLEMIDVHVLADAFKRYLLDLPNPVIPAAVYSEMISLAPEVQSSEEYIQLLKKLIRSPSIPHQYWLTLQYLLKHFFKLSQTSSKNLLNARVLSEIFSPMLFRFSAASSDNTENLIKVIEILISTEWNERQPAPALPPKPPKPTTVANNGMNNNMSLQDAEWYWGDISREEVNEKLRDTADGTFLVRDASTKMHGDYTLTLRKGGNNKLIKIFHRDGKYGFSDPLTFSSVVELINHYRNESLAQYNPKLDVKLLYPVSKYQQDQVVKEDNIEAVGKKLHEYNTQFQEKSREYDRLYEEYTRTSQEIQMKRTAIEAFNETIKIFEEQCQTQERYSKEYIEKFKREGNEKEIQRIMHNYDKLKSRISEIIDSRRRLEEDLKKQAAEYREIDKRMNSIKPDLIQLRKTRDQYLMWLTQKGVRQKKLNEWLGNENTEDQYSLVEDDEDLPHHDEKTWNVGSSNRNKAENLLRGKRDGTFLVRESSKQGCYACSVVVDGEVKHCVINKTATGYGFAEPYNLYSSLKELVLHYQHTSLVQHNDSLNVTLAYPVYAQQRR

Here is how some compounds turned out for IC50.
-- ask Please look at this compound and report its IC50: CC(=O)N1CCC(Nc2ncnc3ccc(-c4ccc5oc(N)nc5c4)cc23)CC1
-- reply < 100 nM

-- ask Report IC50, nothing else, for this compound: Nc1nc2cc(-c3ccc4ncc(C(=O)N5CC[C@@H](n6cccn6)C5)n4c3)ccc2o1
-- reply < 100 nM

-- ask Supply IC50 value. Item: CC(C)N1CCC(n2cnc3ccc(-c4ccc5oc(N)nc5c4)cc3c2=O)CC1
-- reply < 100 nM

-- ask Check the records and state IC50 for O=C(c1cnc2ccc(-c3cncc(NS(=O)(=O)c4ccccc4)c3)cn12)N1CCOCC1
-- reply < 1000 nM

-- ask Quote IC50 reported for Nc1ncnc2ccc(-c3ccc4nccc(-c5ccncc5)c4c3)cc12 [Compound 8] please.
-- reply < 10000 nM

-- ask Give the value of IC50 reported for the following: CCN(CC)CCNc1cnc2ccc(-c3ccc4oc(N)nc4c3)cc2n1
-- reply < 1000 nM

More entries:
-- ask Please look at this compound and report its IC50: CN1CC(C(=O)N2CCN(c3cnc4ccc(-c5ccc6oc(N)nc6c5)cc4n3)CC2)C1
-- reply < 100 nM

-- ask Could you please provide reported IC50 for Nc1ccc2cc(-c3ccc4nccc(-c5ccncc5)c4c3)ccc2n1 [Compound 5] ? Thanks!
-- reply < 1000 nM

-- ask Using the record for Cc1cn(-c2cnc3ccc(-c4ccc5oc(N)nc5c4)cc3n2)cn1 , state its measured IC50.
-- reply < 100 nM

-- ask Specify measured IC50 for Nc1nc2cc(-c3ccc4ncc(N5CCNC(=O)C5)nc4n3)ccc2o1 .
-- reply < 100 nM
